Sourced from ChEMBL document CHEMBL1155883

Target: Human immunodeficiency virus type 1 reverse transcriptase (Human immunodeficiency virus 1) (UniProt Q72547)
readoutType: log10 ID50 (log10 of the value in nM)
Reminder: these figures are log10 of reported ID50, in nM before transformation.

Recorded results for 8 compounds are shown here.
compound	readoutType	valueMeasured
CCc1c(Cc2c(F)cccc2F)nc(SCC(=O)c2ccc(OC)cc2)[nH]c1=O	log10 ID50	1.49
COc1ccc(C(=O)CSc2nc(Cc3c(F)cccc3Cl)c(C(C)C)c(=O)[nH]2)cc1	log10 ID50	-0.15
COc1ccc(C(=O)CSc2nc(Cc3c(F)cccc3Cl)c(C)c(=O)[nH]2)cc1	log10 ID50	1.26
CCc1c(Cc2c(F)cccc2Cl)nc(SCC(=O)c2ccc(F)cc2)[nH]c1=O	log10 ID50	1.52
Cc1c(Cc2c(Cl)cccc2Cl)nc(SCC(=O)c2ccccc2)[nH]c1=O	log10 ID50	2.36
CCc1c(Cc2c(F)cccc2F)nc(SCC(=O)c2ccccc2)[nH]c1=O	log10 ID50	1.63
O=C(CSc1nc(Cc2c(Cl)cccc2Cl)cc(=O)[nH]1)c1ccccc1	log10 ID50	1.08
CCc1c(Cc2c(Cl)cccc2Cl)nc(SCC(=O)c2ccc(F)cc2)[nH]c1=O	log10 ID50	1.62

Q) Suppose we examine the compound "CCc1c(Cc2c(Cl)cccc2Cl)nc(SCC(=O)c2ccccc2)[nH]c1=O" ; what log10 ID50 value has been reported?
A) 1.85

Q) Then what about the compound CCC(C)c1c(Cc2c(F)cccc2Cl)nc(SCC(=O)c2ccc(F)cc2)[nH]c1=O (configuration not stated) ?
A) 1.38

Q) How about "CCc1c(Cc2c(Cl)cccc2Cl)nc(SCC(=O)c2ccc(OC)cc2)[nH]c1=O" ?
A) 1.36

Q) Same thing, different compound: "COc1ccc(C(=O)CSc2nc(Cc3c(F)cccc3Cl)cc(=O)[nH]2)cc1"
A) 1.15

---

Below: a set of entries, each annotated with reported EC50.
Tested on: Human immunodeficiency virus 1
Assay: Antiviral activity against HIV1 isolates with reverse transcriptase Y188L mutation in human MT4 cells assessed as inhibition of virus-induced cytopathogenicity by MTT assay
Type: functional, organism-based
Conditions: Human immunodeficiency virus 1, MT4

compound	testedSystem	EC50
CCC(C)c1c(Cc2c(F)cccc2Cl)nc(SCC(=O)c2ccc(OC)cc2)[nH]c1=O (stereo unspecified)	Human immunodeficiency virus 1	> 40 µM

Q) Field request: EC50 | item: "COc1ccc(CSc2nc(Cc3c(Cl)cccc3Cl)c(C)c(=O)[nH]2)cc1"
A) > 32 µM

Q) One more compound: "Cc1c(Cc2c(Cl)cccc2Cl)nc(SCC(=O)c2ccc(F)cc2)[nH]c1=O"
A) > 57 µM

Q) Same thing, different compound: "COc1ccc(C(=O)CSc2nc(Cc3c(F)cccc3Cl)cc(=O)[nH]2)cc1"
A) > 12 µM

Q) Please answer likewise for "CCc1c(Cc2c(Cl)cccc2Cl)nc(SCC(=O)c2ccccc2)[nH]c1=O"
A) 5 µM

Q) Same thing, different compound: "O=C(CSc1nc(Cc2c(Cl)cccc2Cl)cc(=O)[nH]1)c1ccc(F)cc1"
A) > 59 µM

---

Test system: Human immunodeficiency virus 1
Assay: Antiviral activity against HIV1 NL4-3 in human MT4 cells assessed as inhibition of virus-induced cytopathogenicity by MTT assay
Type: functional, organism-based
Conditions: Human immunodeficiency virus 1, NL4-3, MT4
pEC50: −log10 of the molar value.
Decision: pEC50 compared against 6; not below it gives Criterion met, below it gives Criterion not met.

Would you please look over these solved cases?
compound	testedSystem	assignedClass
O=c1cc(Cc2c(F)cccc2F)nc(SCc2ccccc2)[nH]1	Human immunodeficiency virus 1	Criterion met
CC(C)c1c(Cc2c(Cl)cccc2Cl)nc(SCC(=O)c2ccccc2)[nH]c1=O	Human immunodeficiency virus 1	Criterion met
CC(C)Sc1nc(Cc2c(F)cccc2F)cc(=O)[nH]1	Human immunodeficiency virus 1	Criterion met
O=C1Nc2ccc(Cl)cc2[C@@](C#CC2CC2)(C(F)(F)F)O1 [EFAVIRENZ]	Human immunodeficiency virus 1	Criterion met

Q) Please check the record "O=C(CSc1nc(Cc2c(Cl)cccc2Cl)cc(=O)[nH]1)c1ccccc1" and state if its pEC50 is at or above 6.
A) Criterion not met

Q) Please give the result for "Cc1c(Cc2c(F)cccc2F)nc(SCc2ccccc2)[nH]c1=O" too.
A) Criterion met

Q) Again, but for "Cc1c(Cc2c(F)cccc2F)nc(SCc2cccnc2)[nH]c1=O"
A) Criterion not met
